- Test System: Estrogen receptor beta (Homo sapiens)
- Protocol Summary: Binding affinity to ERbeta (unknown origin) incubated for 2 hrs by fluorescence tracer based competitive fluorometric binding assay relative to estradiol
Returns yes if the recorded RBA is greater than or equal to 0.4%, and no otherwise.

- Compound: "CCN(c1ccccc1)S(=O)(=O)[C@H]1C[C@H]2O[C@@H]1C(c1ccc(OCC(O)CO)cc1)=C2c1ccc(O)cc1 (relative stereo)"
  Qualitative Label: "no"
- Compound: "CCN(c1ccc(OCCCCCCCC(=O)O)cc1)S(=O)(=O)[C@H]1C[C@H]2O[C@@H]1C(c1ccc(O)cc1)=C2c1ccc(O)cc1 (relative stereo)"
  Qualitative Label: "yes"
- Compound: "COc1ccc(N(CC(F)(F)F)S(=O)(=O)[C@H]2C[C@H]3O[C@@H]2C(c2ccc(OCCCCCCC(=O)O)cc2)=C3c2ccc(O)cc2)cc1 (relative stereo)"
  Qualitative Label: "no"
- Compound: "CCN(c1ccccc1)S(=O)(=O)[C@H]1C[C@H]2O[C@@H]1C(c1ccc(OCCN3CCCCC3)cc1)=C2c1ccc(O)cc1 (relative stereo)"
  Qualitative Label: "yes"
- Compound: "CN(c1ccccc1)S(=O)(=O)[C@H]1C[C@H]2O[C@@H]1C(c1ccc(OCCN3CCCCC3)cc1)=C2c1ccc(O)cc1 (relative stereo)"
  Qualitative Label: "yes"
- Compound: "CCN(c1ccc(OCC(O)CO)cc1)S(=O)(=O)[C@H]1C[C@H]2O[C@@H]1C(c1ccc(O)cc1)=C2c1ccc(O)cc1 (relative stereo)"
  Qualitative Label: "yes"
- Compound: "CCN(c1ccccc1)S(=O)(=O)[C@H]1C[C@H]2O[C@@H]1C(c1ccc(OCCCCCCCCCCC(=O)O)cc1)=C2c1ccc(O)cc1 (relative stereo)"
  Qualitative Label: "no"
- Compound: "COc1ccc(N(CC(F)(F)F)S(=O)(=O)[C@H]2C[C@H]3O[C@@H]2C(c2ccc(OCCN4CCCC4)cc2)=C3c2ccc(O)cc2)cc1 (relative stereo)"
  Qualitative Label: "yes"

###

- Test System: UniProt:Q92731
- Sequence (Q92731 whole entry): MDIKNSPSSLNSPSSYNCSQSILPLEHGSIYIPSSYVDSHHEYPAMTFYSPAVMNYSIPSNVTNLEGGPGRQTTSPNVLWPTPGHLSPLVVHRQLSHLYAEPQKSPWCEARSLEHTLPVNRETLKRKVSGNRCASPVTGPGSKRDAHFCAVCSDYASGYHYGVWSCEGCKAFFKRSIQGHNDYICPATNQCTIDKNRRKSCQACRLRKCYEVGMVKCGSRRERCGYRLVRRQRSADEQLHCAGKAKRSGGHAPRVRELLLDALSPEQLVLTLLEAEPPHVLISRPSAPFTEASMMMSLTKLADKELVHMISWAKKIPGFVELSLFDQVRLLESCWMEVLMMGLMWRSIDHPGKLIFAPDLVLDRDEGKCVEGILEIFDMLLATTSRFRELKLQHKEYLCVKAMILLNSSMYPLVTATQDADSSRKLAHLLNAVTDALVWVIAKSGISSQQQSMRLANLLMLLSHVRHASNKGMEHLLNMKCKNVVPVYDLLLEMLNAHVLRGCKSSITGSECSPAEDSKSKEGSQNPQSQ
- Protocol Summary: Binding affinity to ERbeta (unknown origin) incubated for 2 hrs by fluorescence tracer based competitive fluorometric binding assay relative to estradiol
Entries and their measured RBA follow.
Recorded Metric: RBA (%)

- Molecule: "CCN(c1ccc(OCCCCCCCCCCC(=O)O)cc1)S(=O)(=O)[C@H]1C[C@H]2O[C@@H]1C(c1ccc(O)cc1)=C2c1ccc(O)cc1 (relative stereo)"
  Comparator: "<"
  Experimental Value: 0.01
- Molecule: "COc1ccc(N(CC(F)(F)F)S(=O)(=O)[C@H]2C[C@H]3O[C@@H]2C(c2ccc(OCCCCCCCC(=O)O)cc2)=C3c2ccc(O)cc2)cc1 (relative stereo)"
  Comparator: "<"
  Experimental Value: 0.01
- Molecule: "CCN(c1ccc(OCCN2CCCCC2)cc1)S(=O)(=O)[C@H]1C[C@H]2O[C@@H]1C(c1ccc(O)cc1)=C2c1ccc(O)cc1 (relative stereo)"
  Comparator: "="
  Experimental Value: 0.25
- Molecule: "COc1ccc(N(CC(F)(F)F)S(=O)(=O)[C@H]2C[C@H]3O[C@@H]2C(c2ccc(OCCCCCCCCCCC(=O)O)cc2)=C3c2ccc(O)cc2)cc1 (relative stereo)"
  Comparator: "="
  Experimental Value: 0.7
- Molecule: "O=S(=O)([C@H]1C[C@H]2O[C@@H]1C(c1ccc(OCC(O)CO)cc1)=C2c1ccc(O)cc1)N(CC(F)(F)F)c1ccc(Cl)cc1 (relative stereo)"
  Comparator: "<"
  Experimental Value: 0.01
